# experimentSummary: Plasma pharmacokinetics after multiple daily talazoparib dosing
# Type: in vivo, human
# experimentalConditions: human, in vivo, 1.35 mg/day, cycle 2 day 1, plasma, n = 3; geometric mean (geometric CV%); read-out: AUC0–24
observedProperty: AUC(0-t) (ng·h/mL)
One number for each entry, in ng·h/mL.

Query: Any idea what AUC(0-t) was measured for `Cn1ncnc1[C@H]1c2n[nH]c(=O)c3cc(F)cc(c23)N[C@@H]1c1ccc(F)cc1` ?
Result: 226

---

# experimentSummary: Plasma pharmacokinetics after multiple daily talazoparib dosing
# Assay type: in vivo, human
# experimentalConditions: human, in vivo; 1.35 mg/day, cycle 2 day 1, plasma, n = 3; geometric mean (geometric CV%)
observedProperty: Cmax
Just so you know, I need the unit written after the number.

Query: Recorded Cmax of Cn1ncnc1[C@H]1c2n[nH]c(=O)c3cc(F)cc(c23)N[C@@H]1c1ccc(F)cc1 [talazoparib] , please.
Result: 19.7 ng/mL

Values were extracted from paper PMC8609999.
